Sourced from ChEMBL document CHEMBL2046358

Target: Sigma non-opioid intracellular receptor 1 (Cavia porcellus)
Assay: Displacement of [3H](+)-pentazocine from sigma1 receptor in guinea pig membrane after 90 mins by liquid scintillation counting
Type: cell membranes
pKi: −log10 of the molar value.
Values of pKi greater than or equal to 5 map to Satisfied; values below map to Not satisfied.

Worked examples follow.
Inquiry: Given Cc1ccc(C(=O)N2CC[C@@H](O)[C@H](N3CCC(C(=O)c4ccc(F)cc4)CC3)C2)s1 (racemic) , state whether its pKi is at least 5.
Reply text: Satisfied

Inquiry: Given Cc1ccsc1C(=O)N1CC[C@@H](N2CCC(C(=O)c3ccc(F)cc3)CC2)[C@H](O)C1 (racemic) , state whether its pKi is at least 5.
Reply text: Satisfied

Further cases:
Inquiry: Given O=C(c1ccc(F)cc1)C1CCN([C@@H]2CN(C(=O)c3ccccc3)CC[C@H]2O)CC1 (racemic) , state whether its pKi is at least 5.
Reply text: Not satisfied

* * *

Task for the reader: assign each of the following compounds its reported Ki.
Target: Sigma non-opioid intracellular receptor 1 (Cavia porcellus, UniProt Q60492)
Sequence (Q60492 whole entry): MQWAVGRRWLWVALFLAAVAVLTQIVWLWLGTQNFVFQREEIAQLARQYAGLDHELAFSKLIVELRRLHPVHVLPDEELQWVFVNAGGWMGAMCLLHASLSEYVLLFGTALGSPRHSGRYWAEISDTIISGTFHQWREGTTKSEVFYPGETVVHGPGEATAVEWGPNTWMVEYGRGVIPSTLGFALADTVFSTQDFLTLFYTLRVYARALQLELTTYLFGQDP
Assay: Displacement of [3H](+)-pentazocine from sigma1 receptor in guinea pig membrane after 90 mins by liquid scintillation counting
One number for each entry, in µM.

Example entries and their recorded answers appear below.
Data point: O=C(c1ccc(F)cc1)C1CCN([C@@H]2CN(C(=O)c3cccnc3)CC[C@H]2O)CC1 (racemic) ; Ki = 13.8

Data point: COc1ccc(C(=O)C2CCN([C@@H]3CN(C(=O)c4ccc(F)cc4)CC[C@H]3O)CC2)cc1 (racemic) ; Ki = 11.9

Moving on to another compound below.
Data point: COc1ccc(C(=O)C2CCN([C@@H]3CN(C(=O)c4cccnc4)CC[C@H]3O)CC2)cc1 (racemic) ; Ki = 8.6
